# Tested on: NB(TU)1-10 (Neuroblastoma)
# assay_summary: combination Emax (second highest fraction inhibited in the dose matrix, 72 h); higher = more inhibition; extreme values may be limits of the assay
Entries and their measured combination Emax follow.
Note: the reply should be a number with no unit written.

[[record]]
compound = "C=CCn1c(=O)c2cnc(Nc3ccc(N4CCN(C)CC4)cc3)nc2n1-c1cccc(C(C)(C)O)n1 [AZD1775] + O=C(c1cc(Cc2n[nH]c(=O)c3ccccc23)ccc1F)N1CCN(C(=O)C2CC2)CC1 [Olaparib] (first compound max 1 µM, partner max 10 µM)"
test_readout = "combination Emax"
test_result = 0.815


Please provide the recorded combination Emax for CCN(CCO)CCCOc1ccc2c(Nc3cc(CC(=O)Nc4cccc(F)c4)[nH]n3)ncnc2c1 [AZD2811] + C[C@@H]1COCCN1C2=NC(=NC(=C2)C3(CC3)[S@](=N)(=O)C)C4=C5C=CNC5=NC=C4 [AZD6738] (first compound max 1 µM, 7x7, partner max 10 µM) , tested on NB(TU)1-10 (Neuroblastoma).
0.756

How about this compound: COc1cccc(OCCCN)c1-c1cc(Nc2cnc(C#N)cn2)n[nH]1 [Prexasertib] + C[C@@H]1COCCN1C2=NC(=NC(=C2)C3(CC3)[S@](=N)(=O)C)C4=C5C=CNC5=NC=C4 [AZD6738] (first compound max 1 µM, 7x7, partner max 10 µM)
0.94

---

combination Emax for assorted compounds
# Tested on: KARPAS-1106P (B-Cell Non-Hodgkin's Lymphoma)
# assay_summary: combination Emax (second highest fraction inhibited in the dose matrix, 72 h); higher = more inhibition; extreme values may be limits of the assay
Could you respond with only the numeric value?

Sample records with combination Emax:
[[record]]
compound = "NC1(C(=O)N[C@@H](CCO)c2ccc(Cl)cc2)CCN(c2ncnc3[nH]ccc23)CC1 [Capivasertib] + CC(C)n1c(=O)n(C)c2cnc3cc(F)c(-c4ccc(OCCCN5CCCCC5)nc4)cc3c21 [AZD1390] (first compound max 10 µM, 7x7, partner max 0.3 µM)"
assay_target = "KARPAS-1106P (B-Cell Non-Hodgkin's Lymphoma)"
test_result = 0.392

[[record]]
compound = "C[C@@H](Nc1cc(F)cc(F)c1)c1cc(C(=O)N(C)C)cc2c(=O)cc(N3CCOCC3)oc12 [AZD8186] + C1CN(CCC1(C(=O)N[C@@H](CCO)C2=CC=C(C=C2)Cl)N)C3=NC=NC4=C3C=CN4 [AZD5363] (first compound max 10 µM, 7x7, partner max 10 µM)"
assay_target = "KARPAS-1106P (B-Cell Non-Hodgkin's Lymphoma)"
test_result = 0.755

[[record]]
compound = "COc1nnc2ccc(N3CCC(c4ccc(OCCN5CCN(C)C(=O)[C@H]5C)cc4)CC3)nn12 [AZD5153] + Cc1c2c(nn1C)CSCc1cc(n(C)n1)CSc1cc(c3ccccc3c1)OCCCc1c(C(=O)O)n(C)c3c-2c(Cl)ccc13 [AZD5991] (first compound max 1 µM, 7x7, partner max 1 µM)"
assay_target = "KARPAS-1106P (B-Cell Non-Hodgkin's Lymphoma)"
test_result = 1

[[record]]
compound = "CCN(CCO)CCCOc1ccc2c(Nc3cc(CC(=O)Nc4cccc(F)c4)[nH]n3)ncnc2c1 [AZD2811] + C[C@@H]1COCCN1C2=NC(=NC(=C2)C3(CC3)[S@](=N)(=O)C)C4=C5C=CNC5=NC=C4 [AZD6738] (first compound max 1 µM, 7x7, partner max 10 µM)"
assay_target = "KARPAS-1106P (B-Cell Non-Hodgkin's Lymphoma)"
test_result = 0.711

[[record]]
compound = "C=CCn1c(=O)c2cnc(Nc3ccc(N4CCN(C)CC4)cc3)nc2n1-c1cccc(C(C)(C)O)n1 [AZD1775] + C1CN(CCC1(C(=O)N[C@@H](CCO)C2=CC=C(C=C2)Cl)N)C3=NC=NC4=C3C=CN4 [Capivasertib] (first compound max 3 µM, partner max 3 µM)"
assay_target = "KARPAS-1106P (B-Cell Non-Hodgkin's Lymphoma)"
test_result = 0.909


Need combination Emax, item Cc1cc2ncnn2cc1Nc1ncc2c(n1)n(C1CCOCC1)c(=O)n2C [AZD7648] + CN(C)CCCOc1ccc(-c2ccc3ncc4c(c3c2)n(C2CCOCC2)c(=O)n4C)cn1 [AZD0156] (first compound max 10 µM, 7x7, partner max 1 µM)
0.423

Also need CC1(C)CCC(CN2CCN(c3ccc(C(=O)NS(=O)(=O)c4ccc(NCC5CCOCC5)c([N+](=O)[O-])c4)c(Oc4cnc5[nH]ccc5c4)c3)CC2)=C(c2ccc(Cl)cc2)C1 [Venetoclax] + CN(C)CCCOc1ccc(-c2ccc3ncc4c(c3c2)n(C2CCOCC2)c(=O)n4C)cn1 [AZD0156] (first compound max 1 µM, 7x7, partner max 1 µM) , thanks.
0.552

---

# System: C3A (Hepatocellular Carcinoma)
# assay_summary: combination Emax (second highest fraction inhibited in the dose matrix, 72 h); higher = more inhibition; extreme values may be limits of the assay
test_readout: combination Emax
No unit in the answer, please; the number alone is enough.

Worked cases, answers included:
[[record]]
molecule = "COc1cccc(OCCCN)c1-c1cc(Nc2cnc(C#N)cn2)n[nH]1 [Prexasertib] + CCc1c2c(nc3ccc(O)cc13)-c1cc3c(c(=O)n1C2)COC(=O)[C@]3(O)CC [SN-38] (first compound max 1 µM, 7x7, partner max 0.3 µM)"
assay_target = "C3A (Hepatocellular Carcinoma)"
test_result = 0.649

[[record]]
molecule = "C[C@@H](c1ccc2nccn2c1)n1nnc2ncc(-c3cnn(C)c3)nc21 [Savolitinib] + CN(CC[C@H](CSC1=CC=CC=C1)NC2=C(C=C(C=C2)S(=O)(=O)NC(=O)C3=CC=C(C=C3)N4CCC(CC4)[C@H](C5=CC=CC=C5C6=CC=C(C=C6)Cl)O)S(=O)(=O)C(F)(F)F)CCO [AZD4320] (first compound max 1 µM, 7x7, partner max 1 µM)"
assay_target = "C3A (Hepatocellular Carcinoma)"
test_result = 0.183

[[record]]
molecule = "CN(CCO)CC[C@H](CSc1ccccc1)Nc1ccc(S(=O)(=O)NC(=O)c2ccc(N3CCC([C@@H](O)c4ccccc4-c4ccc(Cl)cc4)CC3)cc2)cc1S(=O)(=O)C(F)(F)F [AZD4320] + CCN(CCO)CCCOc1ccc2c(Nc3cc(CC(=O)Nc4cccc(F)c4)[nH]n3)ncnc2c1 [AZD2811] (first compound max 1 µM, 7x7, partner max 1 µM)"
assay_target = "C3A (Hepatocellular Carcinoma)"
test_result = 0.22


Query (molecule): CC1(C)CCC(CN2CCN(c3ccc(C(=O)NS(=O)(=O)c4ccc(NCC5CCOCC5)c([N+](=O)[O-])c4)c(Oc4cnc5[nH]ccc5c4)c3)CC2)=C(c2ccc(Cl)cc2)C1 [Venetoclax] + COc1cc(Nc2ncc3c(n2)-c2ccc(Cl)cc2C(c2c(F)cccc2OC)=NC3)ccc1C(=O)O [Alisertib] (first compound max 1 µM, 7x7, partner max 10 µM) ; field requested: combination Emax
0.302

Further, for C[C@@H](c1ccc2nccn2c1)n1nnc2ncc(-c3cnn(C)c3)nc21 [Savolitinib] + CC1(C)CCC(CN2CCN(c3ccc(C(=O)NS(=O)(=O)c4ccc(NCC5CCOCC5)c([N+](=O)[O-])c4)c(Oc4cnc5[nH]ccc5c4)c3)CC2)=C(c2ccc(Cl)cc2)C1 [Venetoclax] (first compound max 1 µM, 7x7, partner max 1 µM) ?
0.148

Next up: CN(CCO)CC[C@H](CSc1ccccc1)Nc1ccc(S(=O)(=O)NC(=O)c2ccc(N3CCC([C@@H](O)c4ccccc4-c4ccc(Cl)cc4)CC3)cc2)cc1S(=O)(=O)C(F)(F)F [AZD4320] + C[C@@H](Nc1cc(F)cc(F)c1)c1cc(C(=O)N(C)C)cc2c(=O)cc(N3CCOCC3)oc12 [AZD8186] (first compound max 1 µM, 7x7, partner max 3 µM)
0.632

---

# Test system: COR-L95 (Small Cell Lung Carcinoma);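 note: after 72 h of two-drug dosing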
# assay_summary: Bliss excess, mean over the matrix (fraction); higher = more synergy
Below, each entry is listed with its recorded Bliss excess.

[[record]]
compound = "CN(CCO)CC[C@H](CSc1ccccc1)Nc1ccc(S(=O)(=O)NC(=O)c2ccc(N3CCC([C@@H](O)c4ccccc4-c4ccc(Cl)cc4)CC3)cc2)cc1S(=O)(=O)C(F)(F)F [AZD4320] + Cc1cc2ncnn2cc1Nc1ncc2c(n1)n(C1CCOCC1)c(=O)n2C [AZD7648] (first compound max 1 µM, 7x7, partner max 10 µM)"
test_result = 0.0276


Next item in the queue.
What measured Bliss excess goes with Cc1cc2ncnn2cc1Nc1ncc2c(n1)n(C1CCOCC1)c(=O)n2C [AZD7648] + COc1cc([C@@H]2c3cc4c(cc3[C@@H](O[C@@H]3O[C@@H]5CO[C@@H](C)O[C@H]5[C@H](O)[C@H]3O)[C@H]3COC(=O)[C@H]23)OCO4)cc(OC)c1O [Etoposide] (first compound max 10 µM, 7x7, partner max 10 µM) ?
0.0315
